Tested system: ΔF508 mutant CFTR (Homo sapiens, UniProt P13569, DEL508-508)
Construct: expressed in transfected cells; host or cells: Fischer rat thyroid (FRT) cells, co-expressing the halide-sensitive YFP-H148Q/I152L
Sequence (P13569 with tags, fused parts or gaps DEL508-508): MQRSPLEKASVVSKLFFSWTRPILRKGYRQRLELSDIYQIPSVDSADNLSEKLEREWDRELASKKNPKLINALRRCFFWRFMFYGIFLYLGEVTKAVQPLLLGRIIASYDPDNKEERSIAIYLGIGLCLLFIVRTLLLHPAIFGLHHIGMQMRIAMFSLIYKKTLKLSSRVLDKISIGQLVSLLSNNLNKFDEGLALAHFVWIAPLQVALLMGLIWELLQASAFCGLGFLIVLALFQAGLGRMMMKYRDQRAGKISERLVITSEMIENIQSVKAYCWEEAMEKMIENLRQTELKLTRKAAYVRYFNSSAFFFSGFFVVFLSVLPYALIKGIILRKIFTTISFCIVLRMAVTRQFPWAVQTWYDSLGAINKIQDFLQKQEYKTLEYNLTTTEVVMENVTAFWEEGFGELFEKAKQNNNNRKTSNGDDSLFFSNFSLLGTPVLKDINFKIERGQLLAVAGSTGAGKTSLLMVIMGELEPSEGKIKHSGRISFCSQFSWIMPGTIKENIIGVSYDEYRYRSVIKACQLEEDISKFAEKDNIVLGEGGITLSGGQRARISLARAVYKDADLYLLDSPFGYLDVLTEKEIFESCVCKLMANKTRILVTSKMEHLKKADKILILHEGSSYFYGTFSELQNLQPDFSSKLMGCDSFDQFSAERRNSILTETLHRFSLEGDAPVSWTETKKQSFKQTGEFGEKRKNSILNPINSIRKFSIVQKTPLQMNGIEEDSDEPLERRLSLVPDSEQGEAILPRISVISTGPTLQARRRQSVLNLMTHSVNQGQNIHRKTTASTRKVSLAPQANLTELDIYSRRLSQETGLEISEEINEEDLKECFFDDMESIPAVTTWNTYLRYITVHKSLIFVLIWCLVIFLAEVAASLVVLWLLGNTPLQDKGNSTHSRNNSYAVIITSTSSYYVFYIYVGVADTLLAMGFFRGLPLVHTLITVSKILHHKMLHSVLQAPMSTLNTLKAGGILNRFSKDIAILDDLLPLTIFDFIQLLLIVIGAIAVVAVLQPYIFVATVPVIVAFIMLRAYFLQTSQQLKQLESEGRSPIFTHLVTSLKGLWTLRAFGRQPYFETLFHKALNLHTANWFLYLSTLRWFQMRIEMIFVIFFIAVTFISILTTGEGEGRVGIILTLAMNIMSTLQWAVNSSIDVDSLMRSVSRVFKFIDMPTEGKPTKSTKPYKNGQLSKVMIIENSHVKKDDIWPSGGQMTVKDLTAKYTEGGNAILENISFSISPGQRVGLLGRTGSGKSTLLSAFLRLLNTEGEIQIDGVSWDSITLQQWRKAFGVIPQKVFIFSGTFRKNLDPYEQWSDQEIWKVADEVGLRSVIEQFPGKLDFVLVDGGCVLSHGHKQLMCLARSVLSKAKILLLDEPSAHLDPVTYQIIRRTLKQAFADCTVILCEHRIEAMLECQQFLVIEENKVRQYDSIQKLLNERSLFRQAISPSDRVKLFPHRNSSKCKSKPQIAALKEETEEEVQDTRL
Protocol summary: Fluorescence Assay of ΔF508 mutant CFTR activity (halide-sensitive YFP quenching by iodide influx in FRT cells)
Assay type: cell-based
Design: key: fold of mean activity with forskolin alone (I− quenching rate)
Measurement conditions: test compounds 20 μM with forskolin 20 μM, 20 min; FRT cells expressing ΔF508-CFTR and YFP-H148Q/I152L, incubated at 27° C. 20-24 h; rate of fluorescence quenching by I−, normalized to mean activity with forskolin alone
Please use Condition met whenever CFTR Activity is not below 0.6, and Condition not met whenever it is.

>  <Compound>
O=C(Nc1cnccc1OCC1CCOCC1)c1ccc(C(F)(F)F)c(-c2c(F)cccc2F)n1 [Example 47]

>  <Class name>
Condition not met

$$$$
>  <Compound>
Cl.Nc1cc(C(F)(F)F)c(-c2c(F)cccc2F)nc1C(=O)Nc1cnccc1OC1CCNCC1 [Example 51]

>  <Class name>
Condition met

$$$$
>  <Compound>
Cl.Nc1cc(F)c(-c2c(F)cccc2F)nc1C(=O)Nc1cnccc1OC1CCCC(N)C1 (centres unmarked) [Example 37]

>  <Class name>
Condition met

$$$$
>  <Compound>
Cl.NCC(CO)COc1ccncc1NC(=O)c1ccc(C(F)(F)F)c(-c2c(F)cccc2F)n1 (centres unmarked) [Example 58]

>  <Class name>
Condition met

$$$$
>  <Compound>
CC(O)CCOc1ccncc1NC(=O)c1ccc(F)c(-c2c(F)cccc2F)n1 (centres unmarked) [Example 18]

>  <Class name>
Condition not met

$$$$
>  <Compound>
Cl.O=C(Nc1cnccc1OC1CCCNC1)c1ccc(F)c(-c2c(F)cccc2F)n1 (centres unmarked) [Example 5]

>  <Class name>
Condition not met

$$$$
>  <Compound>
Cl.Nc1cc(F)c(-c2c(F)cccc2F)nc1C(=O)Nc1cnccc1OC1CCNC1 (centres unmarked) [Example 24]

>  <Class name>
Condition met

$$$$

----------
Tested system: ΔF508 mutant CFTR (Homo sapiens, UniProt P13569, DEL508-508)
Construct: expressed in transfected cells; host or cells: Fischer rat thyroid (FRT) cells, co-expressing the halide-sensitive YFP-H148Q/I152L
Protocol summary: Fluorescence Assay of ΔF508 mutant CFTR activity (halide-sensitive YFP quenching by iodide influx in FRT cells)
Assay type: cell-based
Set-up: key: fold of mean activity with forskolin alone (I− quenching rate)
Measurement conditions: test compounds 20 μM with forskolin 20 μM, 20 min; FRT cells expressing ΔF508-CFTR and YFP-H148Q/I152L, incubated at 27° C. 20-24 h; rate of fluorescence quenching by I−, normalized to mean activity with forskolin alone
Structures can show the parent of a compound that is named as a salt.

>  <Compound>
Cl.O=C(Nc1cnccc1OC1CCCNCC1)c1ccc(C(F)(F)F)c(-c2c(F)cccc2F)n1 (stereo not drawn)

>  <CFTR Activity>
2.7

$$$$
>  <Compound>
Cl.Nc1cc(F)c(-c2c(F)cccc2F)nc1C(=O)Nc1cnccc1O[C@H]1CC[C@H](N)CC1

>  <CFTR Activity>
4.5

$$$$
>  <Compound>
COc1cccc(F)c1-c1nc(C(=O)Nc2cnccc2OC2CCCNCC2)ccc1F.Cl (stereo not drawn)

>  <CFTR Activity>
2.0

$$$$
>  <Compound>
Cl.NCC(CO)COc1ccncc1NC(=O)c1nc(-c2c(F)cccc2F)c(C(F)(F)F)cc1N (stereo not drawn)

>  <CFTR Activity>
3.1

$$$$
>  <Compound>
Cl.O=C(Nc1cnccc1OCC1CCCNC1)c1ccc(F)c(-c2c(F)cccc2F)n1 (stereo not drawn)

>  <CFTR Activity>
0.8

$$$$
>  <Compound>
O=C(Nc1cnccc1OCCCO)c1ccc(F)c(-c2c(F)cccc2F)n1

>  <CFTR Activity>
0.2

$$$$
>  <Compound>
Cl.NCC(CCl)Oc1ccncc1NC(=O)c1nc(-c2c(F)cccc2F)c(F)cc1N (stereo not drawn)

>  <CFTR Activity>
2.1

$$$$
>  <Compound>
Cl.Nc1cc(F)c(-c2c(F)cccc2F)nc1C(=O)Nc1cnccc1OC1CCCNCC1 (stereo not drawn)

>  <CFTR Activity>
4.3

$$$$
>  <Compound>
Cl.Nc1cc(F)c(-c2ccccc2)nc1C(=O)Nc1cnccc1OC1CCNC1 (stereo not drawn)

>  <CFTR Activity>
1.7

$$$$
>  <Compound>
Cl.Nc1cc(C(F)(F)F)c(-c2c(F)cccc2F)nc1C(=O)Nc1cnccc1O[C@H]1CC[C@H](N)CC1

>  <CFTR Activity>
5.4

$$$$
>  <Compound>
Cl.Nc1cc(C(F)(F)F)c(-c2c(F)cccc2F)nc1C(=O)Nc1cnccc1OCC1CNC1

>  <CFTR Activity>
2.7

$$$$
>  <Compound>
O=C(Nc1cnccc1OCCC(O)CO)c1ccc(F)c(-c2c(F)cccc2F)n1 (stereo not drawn)

>  <CFTR Activity>
0.1

$$$$
>  <Compound>
Cl.Nc1cc(F)c(-c2c(F)cccc2F)nc1C(=O)Nc1cnccc1OCC1CCCNC1 (stereo not drawn)

>  <CFTR Activity>
2.1

$$$$
>  <Compound>
Cl.Nc1cc(F)c(-c2c(F)cccc2F)nc1C(=O)Nc1cnccc1OCC1CCNC1 (stereo not drawn)

>  <CFTR Activity>
2.2

$$$$
>  <Compound>
Cl.O=C(Nc1cnccc1OC1CCCNCC1)c1ccc(F)c(-c2c(F)cccc2F)n1 (stereo not drawn)

>  <CFTR Activity>
1.9

$$$$
>  <Compound>
Cl.O=C(Nc1cnccc1OCC1CCNC1)c1ccc(F)c(-c2c(F)cccc2F)n1 (stereo not drawn)

>  <CFTR Activity>
0.5

$$$$
>  <Compound>
Cl.N[C@H]1CC[C@H](Oc2ccncc2NC(=O)c2ccc(C(F)(F)F)c(-c3c(F)cccc3F)n2)CC1

>  <CFTR Activity>
3.1

$$$$
>  <Compound>
Cl.O=C(Nc1cnccc1OC1CCNCC1)c1ccc(F)c(-c2c(F)cccc2F)n1

>  <CFTR Activity>
1.6

$$$$
>  <Compound>
Cl.O=C(Nc1cnccc1OCC1CNC1)c1ccc(C(F)(F)F)c(-c2c(F)cccc2F)n1

>  <CFTR Activity>
2.1

$$$$
>  <Compound>
Cl.NCC(CO)COc1ccncc1NC(=O)c1ccc(F)c(-c2c(F)cccc2F)n1 (stereo not drawn)

>  <CFTR Activity>
2.4

$$$$
>  <Compound>
Cl.Nc1cc(C(F)(F)F)c(-c2c(F)cccc2F)nc1C(=O)Nc1cnccc1OC1CCCNCC1 (stereo not drawn)

>  <CFTR Activity>
5.2

$$$$
>  <Compound>
Cl.NCCCCOc1ccncc1NC(=O)c1ccc(F)c(-c2c(F)cccc2F)n1

>  <CFTR Activity>
0.7

$$$$
>  <Compound>
Cl.Nc1cc(F)c(-c2c(F)cccc2F)nc1C(=O)Nc1cnccc1OCC1CNC1

>  <CFTR Activity>
1.2

$$$$
>  <Compound>
Cl.NCC(CCl)COc1ccncc1NC(=O)c1ccc(C(F)(F)F)c(-c2c(F)cccc2F)n1 (stereo not drawn)

>  <CFTR Activity>
1.8

$$$$
>  <Compound>
Cl.O=C(Nc1cnccc1OCC1CCNCC1)c1ccc(F)c(-c2c(F)cccc2F)n1

>  <CFTR Activity>
1.4

$$$$
>  <Compound>
NCC(CCl)Oc1ccncc1NC(=O)c1ccc(F)c(-c2c(F)cccc2F)n1 (stereo not drawn) [Example 29, hydrochloride]

>  <CFTR Activity>
1.8

$$$$
>  <Compound>
Cl.NCC(CCl)COc1ccncc1NC(=O)c1ccc(F)c(-c2c(F)cccc2F)n1 (stereo not drawn)

>  <CFTR Activity>
1.6

$$$$
>  <Compound>
Cl.O=C(Nc1cnccc1OC1CCNC1)c1ccc(F)c(-c2c(F)cccc2F)n1 (stereo not drawn)

>  <CFTR Activity>
0.9

$$$$
>  <Compound>
Cl.Nc1cc(F)c(-c2c(F)cccc2F)nc1C(=O)Nc1cnccc1OCC1CCNCC1

>  <CFTR Activity>
2.5

$$$$
>  <Compound>
Cl.Nc1cc(F)c(-c2c(F)cccc2F)nc1C(=O)Nc1cnccc1OC1CNC1

>  <CFTR Activity>
1.1

$$$$
>  <Compound>
Cl.NCC(CCl)COc1ccncc1NC(=O)c1nc(-c2c(F)cccc2F)c(F)cc1N (stereo not drawn)

>  <CFTR Activity>
2.3

$$$$
>  <Compound>
O=C(Nc1cnccc1OCCCCO)c1ccc(F)c(-c2c(F)cccc2F)n1

>  <CFTR Activity>
0.3

$$$$
>  <Compound>
Cl.O=C(Nc1cnccc1OC1CCNCC1)c1ccc(F)c(-c2ccncc2)n1

>  <CFTR Activity>
1.0

$$$$
